A collection of compounds and their measured HEK293 TLR7-NFκB-luc (LEC; μM)
assay_target: human TLR7 (Homo sapiens)
Construct: expressed in transfected cells; host or cells: HEK293
assay_method_text: TLR7 cellular reporter assay (HEK293 TLR7-NFκB-luc)
Assay type: cell-based
condition_set: lowest effective concentration; HEK293 transiently transfected with TLR7 and NFκB-luc; 6 hours incubation
measurement_name: HEK293 TLR7-NFκB-luc (LEC; μM) (µM)

compound	inequality_sign	reported_measurement
CN1CCOC(=O)Cc2cccc(c2)Cn2c(O)nc3c(N)nc1nc32	=	0.33
Nc1nc2nc3c1nc(O)n3Cc1cccc(=O)n1CCCCN2	=	1.68
Nc1nc2nc3c1nc(O)n3Cc1cc(ccn1)OCCCCCO2	=	0.63
Nc1nc2nc3c1nc(O)n3Cc1ncccc1OC/C=C/CCO2	=	5.77
Nc1nc2nc3c1nc(O)n3Cc1cccc(c1)OCCOCCN2	=	14.69
Nc1nc2nc3c1nc(O)n3Cc1cccc(c1)OCCCCCO2	=	0.53
COc1ccc2cc1OC/C=C\COc1nc(N)c3nc(O)n(c3n1)C2 [Compound 57]	=	0.08
Nc1nc2nc3c1nc(O)n3Cc1cccc(c1)OCC(=O)NCCCO2	=	0.041
Nc1nc2nc3c1nc(O)n3Cc1cccc(c1)OCC/C=C/CO2	=	0.3
Nc1nc2nc3c1nc(O)n3Cc1cccc(c1)OCCCCCC(CO)N2 (stereo not drawn)	=	2.24
Nc1nc2nc3c1nc(O)n3Cc1ccc(F)c(c1)OC/C=C\CO2	=	0.11
Nc1nc2nc3c1nc(O)n3Cc1ccc(nc1)OCC(=O)NCCCO2	>	10
Nc1nc2nc3c1ncn3Cc1ncccc1OC/C=C\CCO2	=	2.34
Nc1nc2nc3c1nc(O)n3Cc1cccc(c1)OC/C=C\CO2	=	0.12
Nc1nc2nc3c1nc(O)n3CCc1cccc(c1)OC/C=C/CCO2	=	7.91
Nc1nc2nc3c1nc(O)n3Cc1cccc(c1)OCC/C=C\CO2	=	0.74
Nc1nc2nc3c1nc(O)n3Cc1cccc(c1)OCCCCCN2	=	1.68
Nc1nc2nc3c1nc(O)n3Cc1ccc(cc1)C/C=C/CCCCO2	=	0.87
Nc1nc2nc3c1ncn3Cc1cccc(c1)OC/C=C\CO2	>	25
Nc1nc2nc3c1nc(O)n3Cc1cccc(c1)OCCCCO2	=	0.050
Nc1nc2nc3c1nc(O)n3Cc1cccc(c1)OCCCCN2	=	2.42
Nc1nc2nc3c1nc(O)n3Cc1cccc(c1)OC/C=C/CCCO2	=	0.17
COc1ccc2cc1Cn1c(O)nc3c(N)nc(nc31)OCCCCC2	=	0.2
Nc1nc2nc3c1nc(O)n3Cc1ccccc1OCCCCO2	=	0.12
COc1ccc2cc1C/C=C/CCOc1nc(N)c3nc(O)n(c3n1)C2	=	0.006
Nc1nc2nc3c1nc(O)n3Cc1ccccc1C/C=C\CCO2	=	0.64
Nc1nc2nc3c1nc(O)n3Cc1ncccc1OCCCCCO2	=	1.19
Nc1nc2nc3c1nc(O)n3Cc1cccc(c1)C/C=C\CCO2 [Compound 17]	=	0.067
Nc1nc2nc3c1nc(O)n3Cc1cccc(c1)C/C=C/CCC(CO)N2 (stereo not drawn)	=	0.87
Nc1nc2nc3c1nc(O)n3Cc1ccc(F)c(c1)OCCCCO2	=	0.14
Nc1nc2nc3c1nc(O)n3Cc1ncccc1OC/C=C\CCO2	=	0.108
Nc1nc2nc3c1nc(O)n3Cc1cccc(c1)C/C=C/CCCN2	=	0.77
Nc1nc2nc3c1nc(O)n3Cc1cccc(c1)CC(=O)NCCCO2	=	0.24
COc1ccc2cc1C/C=C\CCOc1nc(N)c3nc(O)n(c3n1)C2	=	0.0024
Nc1nc2nc3c1nc(O)n3Cc1ccc(cc1)OC/C=C/CCCO2	=	4.59
Nc1nc2nc3c1nc(O)n3Cc1cccc(n1)OCC(=O)NCCCO2	=	0.30
Nc1nc2nc3c1nc(O)n3Cc1ncccc1OCC/C=C/CO2	=	1.3
Nc1nc2nc3c1nc(O)n3Cc1cccc(c1)C/C=C/CCO2	=	0.12
Nc1nc2nc3c1nc(O)n3Cc1cccc(c1)OCCCCCCO2	=	0.11

---

assay_target: human TLR7 (Homo sapiens, UniProt Q9NYK1)
Construct: expressed in transfected cells; host or cells: HEK293
Sequence (Q9NYK1 27-1049): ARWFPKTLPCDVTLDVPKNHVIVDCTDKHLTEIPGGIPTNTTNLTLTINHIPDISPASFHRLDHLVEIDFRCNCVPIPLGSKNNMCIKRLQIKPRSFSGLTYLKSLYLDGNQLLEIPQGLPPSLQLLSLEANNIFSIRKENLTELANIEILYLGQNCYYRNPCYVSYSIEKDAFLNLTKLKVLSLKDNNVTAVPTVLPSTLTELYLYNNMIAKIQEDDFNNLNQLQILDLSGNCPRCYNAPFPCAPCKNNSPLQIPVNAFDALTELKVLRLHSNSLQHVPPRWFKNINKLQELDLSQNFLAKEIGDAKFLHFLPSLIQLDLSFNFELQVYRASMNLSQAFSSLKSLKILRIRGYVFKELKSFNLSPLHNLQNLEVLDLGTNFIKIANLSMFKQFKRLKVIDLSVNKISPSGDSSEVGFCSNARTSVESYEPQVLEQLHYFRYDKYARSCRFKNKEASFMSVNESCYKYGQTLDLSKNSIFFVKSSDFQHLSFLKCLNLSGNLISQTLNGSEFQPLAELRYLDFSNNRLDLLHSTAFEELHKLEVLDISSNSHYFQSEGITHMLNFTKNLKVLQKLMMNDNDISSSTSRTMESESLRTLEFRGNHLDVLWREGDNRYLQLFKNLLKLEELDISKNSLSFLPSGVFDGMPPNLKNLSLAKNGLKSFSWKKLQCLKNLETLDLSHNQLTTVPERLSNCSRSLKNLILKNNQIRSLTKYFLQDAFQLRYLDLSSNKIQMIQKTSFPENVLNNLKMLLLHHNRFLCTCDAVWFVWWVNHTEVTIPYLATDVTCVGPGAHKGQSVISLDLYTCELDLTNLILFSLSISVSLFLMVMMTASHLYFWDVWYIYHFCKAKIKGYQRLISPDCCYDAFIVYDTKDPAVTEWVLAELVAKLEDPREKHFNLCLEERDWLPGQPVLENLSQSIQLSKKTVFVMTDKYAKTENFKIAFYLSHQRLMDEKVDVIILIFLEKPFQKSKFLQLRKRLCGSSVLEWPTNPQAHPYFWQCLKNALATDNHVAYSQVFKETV
assay_method_text: TLR7 cellular reporter assay (HEK293 TLR7-NFκB-luc)
Format: cell-based
condition_set: lowest effective concentration; HEK293 transiently transfected with TLR7 and NFκB-luc; 6 hours incubation
Method: The ability of compounds to activate human TLR7 and TLR8 was assessed in a cellular reporter assay using HEK293 cells transiently transfected with a TLR7 or TLR8 expression vector and NFκB-luc reporter construct. […] Following 6 hours incubation at 37° C., 5% CO2, the luciferase activity was determined by adding 15 μl of Steady Lite Plus substrate (Perkin Elmer) to each well and readout performed on a ViewLux ultraHTS microplate imager (Perkin Elmer). […]
We use 2 µM as the dividing line for HEK293 TLR7-NFκB-luc (LEC; μM): on or above the line is condition met, below is condition not met.

substance_smiles	class_assignment
Nc1nc2nc3c1nc(O)n3Cc1cccc(c1)OC/C=C/CO2	condition not met
Nc1nc2nc3c1nc(O)n3CCc1cccc(c1)OCCCCO2	condition not met
Nc1nc2nc3c1nc(O)n3Cc1ncccc1/C=C\CCCO2	condition not met
COc1ccc2cc1Cn1c(O)nc3c(N)nc(nc31)OC/C=C\CO2	condition not met
Nc1nc2nc3c1nc(O)n3CCc1cccc(c1)OC/C=C/CO2	condition not met
Nc1nc2nc3c1nc(O)n3Cc1ncccc1/C=C\CCCCO2	condition met
Nc1nc2nc3c1nc(O)n3Cc1ccc(nc1)OCC/C=C/CCO2	condition met
COc1c2cccc1OCCCCOc1nc(N)c3nc(O)n(c3n1)C2	condition met
COc1ccc2cc1Cn1c(O)nc3c(N)nc(nc31)OC/C=C/CO2	condition not met

---

A collection of compounds and their measured HEK293 TLR7-NFκB-luc (LEC; μM)
assay_target: human TLR7 (Homo sapiens)
Construct: expressed in transfected cells; host or cells: HEK293
assay_method_text: TLR7 cellular reporter assay (HEK293 TLR7-NFκB-luc)
Type: cell-based
condition_set: lowest effective concentration; HEK293 transiently transfected with TLR7 and NFκB-luc; 6 hours incubation

substance_smiles	assay_target	HEK293 TLR7-NFκB-luc (LEC; μM) / µM
COc1ccc2cc1CCCCCOc1nc(N)c3nc(O)n(c3n1)C2	human TLR7 (Homo sapiens)	0.032
Nc1nc2nc3c1nc(O)n3Cc1cccc(c1)C/C=C/CCCCO2	human TLR7 (Homo sapiens)	9.81
Nc1nc2nc3c1nc(O)n3Cc1cccc(c1)CCCCCN2	human TLR7 (Homo sapiens)	1.36
COc1ccc2cc1OCCCCOc1nc(N)c3nc(O)n(c3n1)C2	human TLR7 (Homo sapiens)	0.056
COc1cc2cc(c1)OC/C=C/COc1nc(N)c3nc(O)n(c3n1)C2	human TLR7 (Homo sapiens)	0.0068
COc1ccc2cc1Cn1c(O)nc3c(N)nc(nc31)OCC/C=C\C2	human TLR7 (Homo sapiens)	0.018
COc1ccc2cc1Cn1c(O)nc3c(N)nc(nc31)OCC/C=C/C2	human TLR7 (Homo sapiens)	0.045
Nc1nc2nc3c1nc(O)n3Cc1ccc(F)c(c1)OC/C=C\CN2	human TLR7 (Homo sapiens)	0.4
Nc1nc2nc3c1nc(O)n3Cc1cccc(n1)OC/C=C/CCCO2	human TLR7 (Homo sapiens)	0.21

---

assay_target: human TLR7 (Homo sapiens)
Construct: expressed in transfected cells; host or cells: HEK293
assay_method_text: TLR7 cellular reporter assay (HEK293 TLR7-NFκB-luc)
Format: cell-based
condition_set: lowest effective concentration; HEK293 transiently transfected with TLR7 and NFκB-luc; 6 hours incubation
measurement_name: HEK293 TLR7-NFκB-luc (LEC; μM)

molecule	assay_target	reported_measurement
Nc1nc2nc3c1nc(O)n3Cc1cccc(c1)C/C=C/CCN2 [Compound 29]	human TLR7 (Homo sapiens)	0.81 µM
Nc1nc2nc3c1nc(O)n3Cc1cccc(c1)C/C=C\CCO2 [Compound 1]	human TLR7 (Homo sapiens)	0.154 µM
Nc1nc2nc3c1nc(O)n3Cc1cccc(c1)OC/C=C\CCO2 [Compound 26]	human TLR7 (Homo sapiens)	0.027 µM
Nc1nc2nc3c1nc(O)n3Cc1cccc(c1)OC/C=C/CCC(CO)N2 (centres unmarked) [Compound 18]	human TLR7 (Homo sapiens)	0.82 µM
Nc1nc2nc3c1nc(O)n3Cc1cc(ccn1)OC/C=C\CCO2 [Compound 37]	human TLR7 (Homo sapiens)	0.8 µM
Nc1nc2nc3c1nc(O)n3Cc1cccc(c1)C/C=C/CCCn1ccnc1-2 [Compound 3]	human TLR7 (Homo sapiens)	1.05 µM
Nc1nc2nc3c1nc(O)n3Cc1ccccc1C/C=C/CCO2 [Compound 47]	human TLR7 (Homo sapiens)	3.43 µM
Nc1nc2nc3c1nc(O)n3Cc1ccc(F)c(c1)OCCCCN2 [Compound 92]	human TLR7 (Homo sapiens)	0.47 µM
